Values compiled from patent EP0705258B1.

system: Zymosan Stimulated Macrophages; assay: Inhibition of Arachidonic Acid Release from Zymosan Stimulated Macrophages (Test D); type: cell-based, MF1 mice; settings: Mus musculus, Macrophage, tested at 100, 50, 20, 10, 5 and 1 µM
Where a name gives a salt, the structure may show the parent alone.
MEASUREMENT NAME: pIC50
Just the number, please; pIC50 means minus log10 of the concentration in mol/L.

COMPOUND: Cc1nc2ccccc2n1CCC1CCN(CCCc2ccccc2)CC1 [Example 112]
pIC50: 4.80
--
COMPOUND: O=C(CN1CCC(CCn2ccnc2)CC1)Nc1ccc(C(F)(F)F)cc1 [Example 91]
pIC50: 4.77
--
COMPOUND: CC(C)c1nccn1CCC1CCN(CCCc2ccccc2)CC1 [Example 106]
pIC50: 4.66
--
COMPOUND: Clc1ccc(CCCN2CCC(CCn3ccnc3)CC2)cc1 [Example 123]
pIC50: 4.46
--
COMPOUND: c1ccc(CCCN2CCC(Cn3ccnc3)CC2)cc1 [Example 102]
pIC50: 4.27

Query block: Which pIC50 is reported for this compound? CC1CN(CCCc2ccccc2)CCC1CCn1ccnc1 (centres unmarked) [Example 103]
Result block: 4.55

Query block: Query: pIC50; subject: O=C(CCCN1CCC(CCn2ccnc2)CC1)c1ccccc1 [Example 88]
Result block: 4.28

Query block: Please give the measured pIC50 for this compound: c1ccc(CCCC2CCN(CCn3ccnc3)CC2)cc1 [Example 96, dihydrochloride monohydrate]
Result block: 4.47
